Recorded values, source ChEMBL document CHEMBL3352339.

System: Aspergillus flavus
Procedure Details: Antifungal activity against Aspergillus flavus at 50 ug/mL incubated for 3 days by agar well diffusion method
Type: functional
Recorded Conditions: 72 h, read-out: IZ
Starred links: 1 amine or outer side, 2 acyl side, 3 side chain; linkers in the order of their positions; H or OH if unused. Residues, ends and D or L forms follow the SMILES beside them. *: point of attachment. X1 = c1ccc2c(N3CCN(*)CC3)nsc2c1; NH(2-F-phenyl) = Fc1ccccc1N*; CO = O=C([*:1])[*:2]; X3 = COc1ccccc1N*
Observed Property: zone of inhibition at 50 µg/mL (mm)
Numbers only; they are read as mm.

[Q] # input compound: CC(C)[C@H](NC(=O)CNC(=O)[C@H](Cc1ccccc1)NC(=O)CNC(=O)Nc1ccccc1F)C(=O)N1CCC[C@H]1C(=O)N1CCN(c2nsc3ccccc23)CC1 ({NH(2-F-phenyl)-CO}-GFGVP-X1) ; wanted: its zone of inhibition at 50 µg/mL
[A] 28

[Q] // returns reported zone of inhibition at 50 µg/mL for input COc1ccccc1NC(=O)NCC(=O)N[C@@H](Cc1ccccc1)C(=O)NCC(=O)N[C@H](C(=O)N1CCC[C@H]1C(=O)N1CCN(c2nsc3ccccc23)CC1)C(C)C ({X3-CO}-GFGVP-X1)
[A] 25

[Q] Quick one: zone of inhibition at 50 µg/mL of COc1ccccc1NC(=O)NCC(=O)N[C@H](C(=O)NCC(=O)N[C@H](C(=O)N1CCC[C@H]1C(=O)N1CCN(c2nsc3ccccc23)CC1)C(C)C)C(C)C ({X3-CO}-GVGVP-X1) ?
[A] 21

----------
Tested on: Staphylococcus
Procedure Details: Antibacterial activity against Coagulase positive Staphylococcus incubated for 24 hrs by agar microdilution method
Type: functional
Starred links: 1 amine or outer side, 2 acyl side, 3 side chain; linkers in the order of their positions; H or OH if unused. Residues, ends and D or L forms follow the SMILES beside them. *: point of attachment. Thiocarbamoyl(N-2-FPh) = Fc1ccccc1NC(=S)*; X1 = c1ccc2c(N3CCN(*)CC3)nsc2c1; NH(4-F-phenyl) = Fc1ccc(N*)cc1; X2 = Fc1ccc(NC(=S)*)cc1; CO = O=C([*:1])[*:2]
Observed Property: MIC (µg/mL)
Give just the number in µg/mL; leave the unit off.

[Q] Give the measured MIC of CC(C)[C@H](NC(=O)CNC(=O)[C@H](Cc1ccccc1)NC(=O)CNC(=O)Nc1ccc(F)cc1)C(=O)N1CCC[C@H]1C(=O)N1CCN(c2nsc3ccccc23)CC1 ({NH(4-F-phenyl)-CO}-GFGVP-X1) .
[A] 11.2

[Q] Which MIC is listed for CC(C)[C@H](NC(=O)CNC(=O)[C@H](Cc1ccccc1)NC(=O)CNC(=S)Nc1ccc(F)cc1)C(=O)N1CCC[C@H]1C(=O)N1CCN(c2nsc3ccccc23)CC1 (X2-GFGVP-X1) ?
[A] 9

[Q] Reported MIC for CC(C)[C@H](NC(=O)CNC(=O)Nc1ccc(F)cc1)C(=O)NCC(=O)N[C@H](C(=O)N1CCC[C@H]1C(=O)N1CCN(c2nsc3ccccc23)CC1)C(C)C ({NH(4-F-phenyl)-CO}-GVGVP-X1) : what is it?
[A] 13.2

[Q] Query: MIC; subject: CC(C)[C@H](NC(=O)CNC(=O)[C@H](Cc1ccccc1)NC(=O)CNC(=S)Nc1ccccc1F)C(=O)N1CCC[C@H]1C(=O)N1CCN(c2nsc3ccccc23)CC1 ({Thiocarbamoyl(N-2-FPh)}-GFGVP-X1)
[A] 11.2

[Q] Which MIC value is on record for CC(C)[C@H](NC(=O)CNC(=S)Nc1ccccc1F)C(=O)NCC(=O)N[C@H](C(=O)N1CCC[C@H]1C(=O)N1CCN(c2nsc3ccccc23)CC1)C(C)C ({Thiocarbamoyl(N-2-FPh)}-GVGVP-X1) ?
[A] 15.5

----------
What IC50 was measured for each of the following?
Subject Of Test: Urease (Canavalia ensiformis)
Sequence (P07374 whole entry): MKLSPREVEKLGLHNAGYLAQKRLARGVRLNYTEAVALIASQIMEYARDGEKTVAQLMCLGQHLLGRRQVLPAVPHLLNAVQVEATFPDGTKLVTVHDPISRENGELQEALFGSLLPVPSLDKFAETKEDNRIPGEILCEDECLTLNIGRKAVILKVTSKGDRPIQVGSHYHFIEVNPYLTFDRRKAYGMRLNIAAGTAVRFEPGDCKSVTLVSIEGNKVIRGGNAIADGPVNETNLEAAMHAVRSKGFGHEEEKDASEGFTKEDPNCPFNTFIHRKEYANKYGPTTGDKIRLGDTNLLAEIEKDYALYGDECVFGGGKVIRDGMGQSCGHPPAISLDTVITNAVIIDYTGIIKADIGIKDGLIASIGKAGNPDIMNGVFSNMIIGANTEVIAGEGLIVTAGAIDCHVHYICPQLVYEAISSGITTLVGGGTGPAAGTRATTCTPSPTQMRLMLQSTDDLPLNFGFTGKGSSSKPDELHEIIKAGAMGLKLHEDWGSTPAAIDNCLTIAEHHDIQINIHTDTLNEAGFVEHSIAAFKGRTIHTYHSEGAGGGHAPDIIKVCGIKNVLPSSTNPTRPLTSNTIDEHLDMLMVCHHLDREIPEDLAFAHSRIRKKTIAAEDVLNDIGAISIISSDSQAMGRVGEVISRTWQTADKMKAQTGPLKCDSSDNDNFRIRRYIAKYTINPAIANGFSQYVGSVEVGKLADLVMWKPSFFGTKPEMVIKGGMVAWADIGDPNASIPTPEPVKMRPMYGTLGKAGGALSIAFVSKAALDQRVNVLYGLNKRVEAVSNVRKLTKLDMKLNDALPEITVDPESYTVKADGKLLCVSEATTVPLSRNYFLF
Procedure Details: Inhibition of jack bean urease assessed as reduction in ammonia production incubated at 30 degC for 15 mins by indophenol method
Starred links: 1 amine or outer side, 2 acyl side, 3 side chain; linkers in the order of their positions; H or OH if unused. Residues, ends and D or L forms follow the SMILES beside them. *: point of attachment. NH(4-MeO-phenyl) = COc1ccc(N*)cc1; X1 = c1ccc2c(N3CCN(*)CC3)nsc2c1; X4 = COc1cccc(NC(=S)*)c1; X2 = Fc1ccc(NC(=S)*)cc1; X5 = COc1ccccc1NC(=S)*; CO = O=C([*:1])[*:2]; X3 = COc1ccccc1N*
Answer format: numeric, µM implied, no suffix.

[Q] Hello, I am looking for reported IC50 with Urease (Canavalia ensiformis) for COc1ccccc1NC(=O)NCC(=O)N[C@H](C(=O)NCC(=O)N[C@H](C(=O)N1CCC[C@H]1C(=O)N1CCN(c2nsc3ccccc23)CC1)C(C)C)C(C)C ({X3-CO}-GVGVP-X1) . Could you help?
[A] 22

[Q] Find IC50 (Urease (Canavalia ensiformis)) for the entry CC(C)[C@H](NC(=O)CNC(=S)Nc1ccc(F)cc1)C(=O)NCC(=O)N[C@H](C(=O)N1CCC[C@H]1C(=O)N1CCN(c2nsc3ccccc23)CC1)C(C)C (X2-GVGVP-X1)
[A] 35

[Q] Requested read-out IC50, target or system Urease (Canavalia ensiformis), entry COc1cccc(NC(=S)NCC(=O)N[C@H](C(=O)NCC(=O)N[C@H](C(=O)N2CCC[C@H]2C(=O)N2CCN(c3nsc4ccccc34)CC2)C(C)C)C(C)C)c1 (X4-GVGVP-X1)
[A] 23

[Q] Find the measured IC50: item COc1ccc(NC(=O)NCC(=O)N[C@H](C(=O)NCC(=O)N[C@H](C(=O)N2CCC[C@H]2C(=O)N2CCN(c3nsc4ccccc34)CC2)C(C)C)C(C)C)cc1 ({NH(4-MeO-phenyl)-CO}-GVGVP-X1) , target or system Urease (Canavalia ensiformis).
[A] 21

[Q] Short answer please: IC50, Urease (Canavalia ensiformis), entry COc1ccccc1NC(=S)NCC(=O)N[C@H](C(=O)NCC(=O)N[C@H](C(=O)N1CCC[C@H]1C(=O)N1CCN(c2nsc3ccccc23)CC1)C(C)C)C(C)C (X5-GVGVP-X1)
[A] 20

----------
Tested on: Xanthomonas oryzae
Procedure Details: Antibacterial activity against Xanthomonas oryzae at 50 ug/mL incubated for 24 hrs by agar well diffusion method
Type: functional
Recorded Conditions: read-out: IZ
Starred links: 1 amine or outer side, 2 acyl side, 3 side chain; linkers in the order of their positions; H or OH if unused. Residues, ends and D or L forms follow the SMILES beside them. *: point of attachment. Thiocarbamoyl(4-MeOPh) = COc1ccc(NC(=S)*)cc1; Thiocarbamoyl(N-2-FPh) = Fc1ccccc1NC(=S)*; X1 = c1ccc2c(N3CCN(*)CC3)nsc2c1; NH(3-MeOPh) = COc1cccc(N*)c1; CO = O=C([*:1])[*:2]; X3 = COc1ccccc1N*
Answer each item with its documented zone of inhibition at 50 µg/mL.
Your answer is read as mm, so omit the unit and give the number.

[Q] Name the reported zone of inhibition at 50 µg/mL value associated with the molecule COc1ccc(NC(=S)NCC(=O)N[C@H](C(=O)NCC(=O)N[C@H](C(=O)N2CCC[C@H]2C(=O)N2CCN(c3nsc4ccccc34)CC2)C(C)C)C(C)C)cc1 ({Thiocarbamoyl(4-MeOPh)}-GVGVP-X1)
[A] 25

[Q] I am curious: what zone of inhibition at 50 µg/mL value has been reported for COc1ccccc1NC(=O)NCC(=O)N[C@H](C(=O)NCC(=O)N[C@H](C(=O)N1CCC[C@H]1C(=O)N1CCN(c2nsc3ccccc23)CC1)C(C)C)C(C)C ({X3-CO}-GVGVP-X1) ?
[A] 18

[Q] Entry under review: COc1cccc(NC(=O)NCC(=O)N[C@@H](Cc2ccccc2)C(=O)NCC(=O)N[C@H](C(=O)N2CCC[C@H]2C(=O)N2CCN(c3nsc4ccccc34)CC2)C(C)C)c1 ({NH(3-MeOPh)-CO}-GFGVP-X1) . Reported zone of inhibition at 50 µg/mL?
[A] 18

[Q] Which zone of inhibition at 50 µg/mL value belongs to CC(C)[C@H](NC(=O)CNC(=S)Nc1ccccc1F)C(=O)NCC(=O)N[C@H](C(=O)N1CCC[C@H]1C(=O)N1CCN(c2nsc3ccccc23)CC1)C(C)C ({Thiocarbamoyl(N-2-FPh)}-GVGVP-X1) ?
[A] 24

[Q] Could you share which zone of inhibition at 50 µg/mL value was measured for COc1ccccc1NC(=O)NCC(=O)N[C@@H](Cc1ccccc1)C(=O)NCC(=O)N[C@H](C(=O)N1CCC[C@H]1C(=O)N1CCN(c2nsc3ccccc23)CC1)C(C)C ({X3-CO}-GFGVP-X1) ?
[A] 22

----------
System: Staphylococcus
Procedure Details: Antibacterial activity against Coagulase positive Staphylococcus incubated for 24 hrs by agar microdilution method
Format: functional
Starred links: 1 amine or outer side, 2 acyl side, 3 side chain; linkers in the order of their positions; H or OH if unused. Residues, ends and D or L forms follow the SMILES beside them. *: point of attachment. X1 = c1ccc2c(N3CCN(*)CC3)nsc2c1; NH(2-F-phenyl) = Fc1ccccc1N*; X2 = Fc1ccc(NC(=S)*)cc1; CO = O=C([*:1])[*:2]
Would you kindly list MIC for each of these compounds?
Reply with just the number (in µg/mL).

[Q] I'd like to know its MIC. The compound in question is `CN[C@@H]1[C@H](O[C@H]2[C@H](O[C@H]3[C@H](O)[C@@H](O)[C@H](N=C(N)N)[C@@H](O)[C@@H]3N=C(N)N)O[C@@H](C)[C@]2(O)C=O)O[C@@H](CO)[C@H](O)[C@H]1O`
[A] 21

[Q] So what's the measured MIC for this one? CC(C)[C@H](NC(=O)CNC(=S)Nc1ccc(F)cc1)C(=O)NCC(=O)N[C@H](C(=O)N1CCC[C@H]1C(=O)N1CCN(c2nsc3ccccc23)CC1)C(C)C (X2-GVGVP-X1)
[A] 10.8

[Q] Record request: MIC value, item CC(C)[C@H](NC(=O)CNC(=O)[C@H](Cc1ccccc1)NC(=O)CNC(=O)Nc1ccccc1F)C(=O)N1CCC[C@H]1C(=O)N1CCN(c2nsc3ccccc23)CC1 ({NH(2-F-phenyl)-CO}-GFGVP-X1)
[A] 12.2

[Q] What value of measured MIC is listed for CC(C)[C@H](NC(=O)CNC(=O)Nc1ccccc1F)C(=O)NCC(=O)N[C@H](C(=O)N1CCC[C@H]1C(=O)N1CCN(c2nsc3ccccc23)CC1)C(C)C ({NH(2-F-phenyl)-CO}-GVGVP-X1) ?
[A] 16.8
